Reference for the values: patent US11345711B2

Tgt: UniProt:P30291
Sequence (P30291 whole entry): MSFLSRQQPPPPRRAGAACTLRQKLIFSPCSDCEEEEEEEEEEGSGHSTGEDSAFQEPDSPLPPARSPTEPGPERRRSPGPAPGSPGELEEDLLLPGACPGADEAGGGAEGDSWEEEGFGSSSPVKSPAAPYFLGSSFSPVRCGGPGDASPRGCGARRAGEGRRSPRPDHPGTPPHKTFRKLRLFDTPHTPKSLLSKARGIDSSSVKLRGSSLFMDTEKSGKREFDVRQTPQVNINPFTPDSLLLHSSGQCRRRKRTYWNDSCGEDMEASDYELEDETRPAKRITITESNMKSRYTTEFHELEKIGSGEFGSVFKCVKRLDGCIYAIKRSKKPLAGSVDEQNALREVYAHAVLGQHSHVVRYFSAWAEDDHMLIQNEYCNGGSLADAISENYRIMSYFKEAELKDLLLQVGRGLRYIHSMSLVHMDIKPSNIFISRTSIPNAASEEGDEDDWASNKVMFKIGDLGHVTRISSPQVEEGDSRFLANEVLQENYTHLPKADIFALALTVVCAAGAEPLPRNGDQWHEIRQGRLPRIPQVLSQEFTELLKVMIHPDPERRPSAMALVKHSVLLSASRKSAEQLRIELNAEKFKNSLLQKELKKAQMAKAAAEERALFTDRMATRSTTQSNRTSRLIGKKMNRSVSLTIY
Experiment Description: Wee1 kinase (h) detection method, [γ-33P]-ATP filter assay
Assay type: biochemical
Measurement Parameters: C 0.01 μm compound
Procedure: Determination of the inhibitory effect of 6-(2-chlorophenyl)-2-((4-(4-methylpiperazin-1-yl)phenyl)amino)-8,9-dihydroimidazo[1,2-a]pyrimido[5,4-e]pyrimidin-5(6H)-one and Analogs on the Enzyme Activity of Wee1 Kinase by Using the Wee1 Kinase (h) Detection Method Then the stock solution of all compounds under test with 50× concentration in 100% DMSO was added to make the final concentration of 10/1/0.1/0.01 μM, and then mixed the mixture well. […]
Output schema: class label derived from Inh. (%) of Wee1 kinase enzyme activity. Mapping: bucket 1 (below 20%), bucket 2 (20% to below 30%), bucket 3 (30% or more)

Examples with answers:
smiles=CN1CCN(c2ccc(Nc3ncc4c(n3)N3CCN=C3N(c3c(Cl)cccc3Cl)C4=O)cc2Br)CC1 assigned_class="bucket 2"
smiles=Cc1cc(Nc2ncc3c(n2)N2CCN=C2N(c2c(Cl)cccc2Cl)C3=O)cc(Br)c1N1CCN(C)CC1 assigned_class="bucket 1"
smiles=CC(C)N1[C@H](C)CN(c2ccc(Nc3ncc4c(n3)N3CCN=C3N(c3c(F)cccc3Cl)C4=O)cc2)C[C@@H]1C assigned_class="bucket 2"

stdin: Which class is correct for the following compound? Cc1cc(Nc2ncc3c(n2)N2CCN=C2N(c2c(F)cccc2Cl)C3=O)cc(C)c1N1CCN(C)CC1
stdout: bucket 1

stdin: Which class is correct for the following compound? CN1CCN(c2ccc(Nc3ncc4c(n3)N3CCN=C3N(c3c(F)cccc3Cl)C4=O)cc2Cl)CC1
stdout: bucket 3

stdin: Which class is correct for the following compound? Cc1cc(Nc2ncc3c(n2)N2CCN=C2N(c2c(Cl)cccc2Cl)C3=O)ccc1N1CCN(C(C)C)CC1
stdout: bucket 2

stdin: Which class is correct for the following compound? C[C@@H]1CN(c2ccc(Nc3ncc4c(n3)N3CCN=C3N(c3c(F)cccc3Cl)C4=O)cc2)C[C@H](C)O1
stdout: bucket 1

stdin: Which class is correct for the following compound? C[C@@H]1CN(c2ccc(Nc3ncc4c(n3)N3CCN=C3N(c3c(Cl)cccc3Cl)C4=O)cc2)C[C@H](C)N1C
stdout: bucket 3

stdin: Which class is correct for the following compound? CN1CCN(c2c(F)cc(Nc3ncc4c(n3)N3CCN=C3N(c3c(Cl)cccc3Cl)C4=O)cc2Br)CC1
stdout: bucket 2

stdin: Which class is correct for the following compound? Cc1cc(Nc2ncc3c(n2)N2CCN=C2N(c2c(Cl)cccc2Cl)C3=O)cc(C)c1N1CCN(C)CC1
stdout: bucket 2
